All figures here come from IntAct's records for PubMed 20974926.

B1: Eukaryotic peptide chain release factor GTP-binding subunit (Schizosaccharomyces pombe (strain ATCC 38366 / 972)), O74718 (parent)
chain: MASNQPNNGEQDEQLAKQTSKLSMSAKAPTFTPKAAPFIPSFQRPGFVPVNNIAGGYPYAQYTGQGQNSNSPHPTKSYQQYYQKPTGNTVDEDKSRVPDFSKKKSFVPPKPAIPKGKVLSLGGNTSAPKSTKPISISLGGTKAPTTTKPAAPAAQSKTETPAPKVTSESTKKETAAPPPQETPTKSADAELAKTPSAPAAALKKAAEAAEPATVTEDATDLQNEVDQELLKDMYGKEHVNIVFIGHVDAGKSTLGGNILFLTGMVDKRTMEKIEREAKEAGKESWYLSWALDSTSEEREKGKTVEVGRAYFETEHRRFSLLDAPGHKGYVTNMINGASQADIGVLVISARRGEFEAGFERGGQTREHAVLARTQGINHLVVVINKMDEPSVQWSEERYKECVDKLSMFLRRVAGYNSKTDVKYMPVSAYTGQNVKDRVDSSVCPWYQGPSLLEYLDSMTHLERKVNAPFIMPIASKYKDLGTILEGKIEAGSIKKNSNVLVMPINQTLEVTAIYDEADEEISSSICGDQVRLRVRGDDSDVQTGYVLTSTKNPVHATTRFIAQIAILELPSILTTGYSCVMHIHTAVEEVSFAKLLHKLDKTNRKSKKPPMFATKGMKIIAELETQTPVCMERFEDYQYMGRFTLRDQGTTVAVGKVVKILD
partner: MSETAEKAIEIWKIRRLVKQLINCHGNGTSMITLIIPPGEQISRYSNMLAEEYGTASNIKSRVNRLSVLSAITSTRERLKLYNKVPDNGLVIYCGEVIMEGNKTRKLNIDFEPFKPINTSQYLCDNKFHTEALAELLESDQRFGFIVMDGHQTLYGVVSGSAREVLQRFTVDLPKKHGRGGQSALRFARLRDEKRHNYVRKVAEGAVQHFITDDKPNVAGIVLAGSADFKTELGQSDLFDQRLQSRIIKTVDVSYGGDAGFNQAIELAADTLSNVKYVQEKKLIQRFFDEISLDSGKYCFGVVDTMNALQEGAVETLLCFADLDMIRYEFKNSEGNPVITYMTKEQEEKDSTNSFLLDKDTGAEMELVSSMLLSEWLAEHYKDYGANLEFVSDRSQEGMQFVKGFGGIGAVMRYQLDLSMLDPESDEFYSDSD

# Variants of: B1
# Applied conditions: with erf1_schpo sup45, P79063

# Mutation key, effect of a mutation on the interaction
rows = [
    ("Y329A", "disrupting interaction"),
    ("T294A", "decreasing interaction"),
    ("E305A", "decreasing interaction"),
    ("Y477A", "disrupting interaction"),
    ("E297A", "decreasing interaction"),
]
